system: ACHN renal; test: NCI-60 one-dose screen, 48 h (100 = growth as untreated, 0 = no growth, -100 = all killed); details: 10 µM unless noted
This is part of a sample that, as a whole, favours compounds with a hit. Of some 83,000 tested, about 20% had one in any assay. Calls of active or inactive are those of the source. How the source made its calls: active means growth percent below 10; inactive means the rest.
outcome measure: growth

Would you please look over these solved cases?
Cc1cc(N2CCCCC2)nc(NC2CCCC(Nc3ccnc4cc(Cl)ccc34)C2)n1 (stereo unspecified) : -86.2% (active)
Cn1c(NCCc2ccc(O)c(O)c2)nc2c1c(=O)n(Cc1ccc(Cl)c(Cl)c1)c(=O)n2C : 41.8% (inactive)

Request - read-out growth | tested on ACHN renal | compound C=CCSSc1ncnc2c1ncn2C1OC(CO)C(O)C1O (stereo unspecified)
25.3% (inactive)

What measured growth is associated with `COc1ccc2c(c1)C(=O)/C(=C/c1ccccn1)CC2` on ACHN renal?
54.1% (inactive)

Record lookup: for ACHN renal, what growth belongs to C=CCSSC1N=CNc2nc[nH]c21 (stereo unspecified) ?
42.6% (inactive)

Enter reported growth observed with ACHN renal for CCN1CCC2(CC1)NC(=O)c1c(c3ccc(Cl)c(Cl)c3n1C)C2C#N (stereo unspecified)
45.6% (inactive)
